system: MDA-MB-435; test: Growth inhibition of human MDA-MB-435 cells assessed as cell growth at 10 uM incubated for 48 hrs by sulforhodamine B assay relative to control; type: functional; settings: MDA-MB-435, 48 h, read-out: Activity
Let's look at some compounds and their measured growth at 10 µM.

| chemicalStructure | u | growth at 10 µM |
| --- | --- | --- |
| CC(C)[C@@]12C[C@@H](NC(=O)CF)[C@@](C)(O1)[C@@H]1CC[C@@H](C)[C@H]1[C@@H]2OC(=O)/C=C/c1ccccc1 | % | 106 |
| C/C(=C\C(=O)O[C@H]1[C@@H]2[C@H](C)CC[C@H]2[C@]2(C)O[C@@]1(C(C)C)C[C@H]2NC(=O)CO)c1ccccc1 | % | 106 |
| CC(C)[C@@]12C[C@@H](NC(=O)CO)[C@@](C)(O1)[C@@H]1CC[C@@H](C)[C@H]1[C@@H]2OC(=O)/C=C/C1CCCCC1 | % | 102 |
| CC(C)[C@@]12C[C@@H](NC(=O)CO)[C@@](C)(O1)[C@@H]1CC[C@@H](C)[C@H]1[C@@H]2OC(=O)/C=C/c1ccccc1 | % | 94.6 |
| CC(C)[C@@]12C[C@@H](NC(=O)CO)[C@@](C)(O1)[C@@H]1CC[C@@H](C)[C@H]1[C@@H]2OC(=O)c1ccc2ccccc2c1 | % | 94 |
